tested on: COLO 205; assay: NCI tumour cell line growth inhibition, 48 h
Activity calls are given as the source filed them. No stated cut-off is given here; in the data, active = GI50 up to about 1.1 µM and inactive = higher.
Observable: GI50

Compound	Result
O=C1Nc2ccccc2/C1=N/Nc1nc(-c2cccc([N+](=O)[O-])c2)cs1	27.1 µM (inactive)
O=C(O)C1C2CCC(O2)C1C(=O)NCc1cccnc1 (centres undefined)	> 100 µM (inactive)
Cc1cc2nc(N3C(=O)/C(=C/c4cccc([N+](=O)[O-])c4)N=C3c3ccccc3)sc2cc1C	36.3 µM (inactive)
O=C1Cc2c(-c3ccccc3)cc(-c3ccccc3)nc2-c2ccccc2N1	2.21 µM (inactive)
CCc1ccc(Cc2ccc(CC)c(NC(=O)C(=O)C3NC(=S)NC3=O)c2CC)c(CC)c1NC(=O)C(=O)C1NC(=S)NC1=O (centres undefined)	> 100 µM (inactive)
CC(=O)OCC1OC(n2c(-c3ccc(C)cc3)cc(-c3ccccc3)c(C#N)c2=S)C(OC(C)=O)C(OC(C)=O)C1OC(C)=O (centres undefined)	> 100 µM (inactive)
C[C@@H]1C[C@@]2(O[C@@H]2C)C(=O)O[C@@H]2CCN3CC=C(COC(=O)[C@]1(C)O)[C@H]23	> 100 µM (inactive)
COc1ccc2[nH]c(C(=O)N3CC(CCl)c4ccc([N+](=O)[O-])cc43)cc2c1 (centres undefined)	> 100 µM (inactive)
COC(=O)c1ccc(Oc2nc3ccc(C(F)(F)F)cc3nc2-c2ccccc2)cc1	> 100 µM (inactive)
